From: patent US20230021483A1

# System: preferentially upregulated genes in LV, SP, LN
# measurement.protocol: Z-score-based differential gene expression analysis (adjuvant group- or adjuvant-associated genes, 40 module mapping, TargetMine annotation)
# Type: in vivo, C57BL/6 mice
# condition.parameters: ID, LV, sample x1
Recorded Irf7 1417244_a_at (Group G1, Modules 20) for the following compounds
value.kind: Irf7 1417244_a_at (Group G1, Modules 20)

1. Cc1ccc2c(=O)c3cccc(CC(=O)O)c3oc2c1C :: 1.05
2. CCOCc1nc2c(N)nc3ccccc3c2n1CC(C)(C)O :: 2.27
3. Nc1nc2c(ncn2[C@@H]2O[C@@H]3COP(=O)(O)O[C@H]4[C@@H](O)[C@H](n5cnc6c(N)ncnc65)O[C@@H]4COP(=O)(O)O[C@@H]2[C@@H]3O)c(=O)[nH]1 [cGAMP, Cyclic [G(2′,5′)pA(3′,5′)p]] :: 1.6
4. Nc1nc2c(ncn2[C@@H]2O[C@@H]3COP(=O)(O)O[C@H]4[C@@H](O)[C@H](n5cnc6c(=O)[nH]c(N)nc65)O[C@@H]4COP(=O)(O)O[C@H]3[C@H]2O)c(=O)[nH]1 [cdiGMP, Cyclic diguanylate monophosphate] :: 0.85

* * *

# Test system: preferentially upregulated genes in LV, SP, LN
# measurement.protocol: Z-score-based differential gene expression analysis (adjuvant group- or adjuvant-associated genes, 40 module mapping, TargetMine annotation)
# Assay type: in vivo, C57BL/6 mice
# condition.parameters: ID, LV, sample x1
Recorded Adar 1425405_a_at (Group G1, Modules 20) for the following molecules
value.kind: Adar 1425405_a_at (Group G1, Modules 20)

1. Cc1ccc2c(=O)c3cccc(CC(=O)O)c3oc2c1C :: 2.03
2. CCOCc1nc2c(N)nc3ccccc3c2n1CC(C)(C)O :: 1.63
3. Nc1nc2c(ncn2[C@@H]2O[C@@H]3COP(=O)(O)O[C@H]4[C@@H](O)[C@H](n5cnc6c(=O)[nH]c(N)nc65)O[C@@H]4COP(=O)(O)O[C@H]3[C@H]2O)c(=O)[nH]1 [cdiGMP, Cyclic diguanylate monophosphate] :: 1.58
4. Nc1nc2c(ncn2[C@@H]2O[C@@H]3COP(=O)(O)O[C@H]4[C@@H](O)[C@H](n5cnc6c(N)ncnc65)O[C@@H]4COP(=O)(O)O[C@@H]2[C@@H]3O)c(=O)[nH]1 [cGAMP, Cyclic [G(2′,5′)pA(3′,5′)p]] :: 2.95

* * *

Recorded Ifih1 1426276_at (Group G1, Modules 20) for the following molecules
# Tested on: preferentially upregulated genes in LV, SP, LN
# measurement.protocol: Z-score-based differential gene expression analysis (adjuvant group- or adjuvant-associated genes, 40 module mapping, TargetMine annotation)
# Type: in vivo, C57BL/6 mice
# condition.parameters: ID, LV, sample x2
value.kind: Ifih1 1426276_at (Group G1, Modules 20)

1. Nc1nc2c(ncn2[C@@H]2O[C@@H]3COP(=O)(O)O[C@H]4[C@@H](O)[C@H](n5cnc6c(=O)[nH]c(N)nc65)O[C@@H]4COP(=O)(O)O[C@H]3[C@H]2O)c(=O)[nH]1 [cdiGMP, Cyclic diguanylate monophosphate] :: 1.09
2. Nc1nc2c(ncn2[C@@H]2O[C@@H]3COP(=O)(O)O[C@H]4[C@@H](O)[C@H](n5cnc6c(N)ncnc65)O[C@@H]4COP(=O)(O)O[C@@H]2[C@@H]3O)c(=O)[nH]1 [cGAMP, Cyclic [G(2′,5′)pA(3′,5′)p]] :: 1.62
3. Cc1ccc2c(=O)c3cccc(CC(=O)O)c3oc2c1C [DMXAA, 5,6-dimethylxanthenone-4-acetic acid] :: 1.09
4. CCOCc1nc2c(N)nc3ccccc3c2n1CC(C)(C)O [R848] :: 2.46

* * *

# System: adjuvant-associated biological themes in LV, SP, LN
# condition.parameters: LV, ID
Recorded GO annotation: TNF signaling pathway (Term: TNF signaling pathway) for the following compounds
value.kind: GO annotation: TNF signaling pathway (Term: TNF signaling pathway)

1) Nc1nc2c(ncn2[C@@H]2O[C@@H]3COP(=O)(O)O[C@H]4[C@@H](O)[C@H](n5cnc6c(N)ncnc65)O[C@@H]4COP(=O)(O)O[C@@H]2[C@@H]3O)c(=O)[nH]1 [cGAMP, Cyclic [G(2′,5′)pA(3′,5′)p]] :: 27.6
2) Nc1nc2c(ncn2[C@@H]2O[C@@H]3COP(=O)(O)O[C@H]4[C@@H](O)[C@H](n5cnc6c(=O)[nH]c(N)nc65)O[C@@H]4COP(=O)(O)O[C@H]3[C@H]2O)c(=O)[nH]1 [cdiGMP, Cyclic diguanylate monophosphate] :: 31.3
3) CC(O)COC[C@H]1O[C@@H]2O[C@H]3[C@H](O)[C@@H](O)[C@@H](O[C@H]4[C@H](O)[C@@H](O)[C@@H](O[C@H]5[C@H](O)[C@@H](O)[C@@H](O[C@H]6[C@H](O)[C@@H](O)[C@@H](O[C@H]7[C@H](O)[C@@H](O)[C@@H](O[C@H]8[C@H](O)[C@@H](O)[C@@H](O[C@H]1[C@H](O)[C@H]2O)O[C@@H]8COCC(C)O)O[C@@H]7COCC(C)O)O[C@@H]6COCC(C)O)O[C@@H]5COCC(C)O)O[C@@H]4COCC(C)O)O[C@@H]3COCC(C)O (stereo partly drawn) [bCD, Hydroxypropyl-beta-cyclodextrin] :: 10.6
4) Cc1ccc2c(=O)c3cccc(CC(=O)O)c3oc2c1C :: 10.7

* * *

# System: adjuvant-associated biological themes in LV, SP, LN
# condition.parameters: LV, ID
Recorded IFN beta: response to interferon-beta for the following molecules
value.kind: IFN beta: response to interferon-beta

1) Nc1nc2c(ncn2[C@@H]2O[C@@H]3COP(=O)(O)O[C@H]4[C@@H](O)[C@H](n5cnc6c(N)ncnc65)O[C@@H]4COP(=O)(O)O[C@@H]2[C@@H]3O)c(=O)[nH]1 [cGAMP, Cyclic [G(2′,5′)pA(3′,5′)p]] :: 23.5
2) CCOCc1nc2c(N)nc3ccccc3c2n1CC(C)(C)O [R848] :: 23.9
3) Nc1nc2c(ncn2[C@@H]2O[C@@H]3COP(=O)(O)O[C@H]4[C@@H](O)[C@H](n5cnc6c(=O)[nH]c(N)nc65)O[C@@H]4COP(=O)(O)O[C@H]3[C@H]2O)c(=O)[nH]1 [cdiGMP, Cyclic diguanylate monophosphate] :: 26.5
4) CC(O)COC[C@H]1O[C@@H]2O[C@H]3[C@H](O)[C@@H](O)[C@@H](O[C@H]4[C@H](O)[C@@H](O)[C@@H](O[C@H]5[C@H](O)[C@@H](O)[C@@H](O[C@H]6[C@H](O)[C@@H](O)[C@@H](O[C@H]7[C@H](O)[C@@H](O)[C@@H](O[C@H]8[C@H](O)[C@@H](O)[C@@H](O[C@H]1[C@H](O)[C@H]2O)O[C@@H]8COCC(C)O)O[C@@H]7COCC(C)O)O[C@@H]6COCC(C)O)O[C@@H]5COCC(C)O)O[C@@H]4COCC(C)O)O[C@@H]3COCC(C)O (stereo partly drawn) [bCD, Hydroxypropyl-beta-cyclodextrin] :: 0
5) Cc1ccc2c(=O)c3cccc(CC(=O)O)c3oc2c1C [DMXAA, 5,6-dimethylxanthenone-4-acetic acid] :: 17.9

* * *

# System: preferentially upregulated genes in LV, SP, LN
# measurement.protocol: Z-score-based differential gene expression analysis (adjuvant group- or adjuvant-associated genes, 40 module mapping, TargetMine annotation)
# Assay type: in vivo, C57BL/6 mice
# condition.parameters: ID, LV, sample x3
value.kind: Ifih1 1426276_at (Group G1, Modules 20)

1. Cc1ccc2c(=O)c3cccc(CC(=O)O)c3oc2c1C :: 0.78
2. CCOCc1nc2c(N)nc3ccccc3c2n1CC(C)(C)O :: 2.36
3. Nc1nc2c(ncn2[C@@H]2O[C@@H]3COP(=O)(O)O[C@H]4[C@@H](O)[C@H](n5cnc6c(=O)[nH]c(N)nc65)O[C@@H]4COP(=O)(O)O[C@H]3[C@H]2O)c(=O)[nH]1 [cdiGMP, Cyclic diguanylate monophosphate] :: 1.65
4. Nc1nc2c(ncn2[C@@H]2O[C@@H]3COP(=O)(O)O[C@H]4[C@@H](O)[C@H](n5cnc6c(N)ncnc65)O[C@@H]4COP(=O)(O)O[C@@H]2[C@@H]3O)c(=O)[nH]1 [cGAMP, Cyclic [G(2′,5′)pA(3′,5′)p]] :: 1.66

* * *

# Tested on: preferentially upregulated genes in LV, SP, LN
# measurement.protocol: Z-score-based differential gene expression analysis (adjuvant group- or adjuvant-associated genes, 40 module mapping, TargetMine annotation)
# Format: in vivo, C57BL/6 mice
# condition.parameters: ID, LV, sample x3
value.kind: Trim12a 1437432_a_at (Group G1, Modules 20)

1. Cc1ccc2c(=O)c3cccc(CC(=O)O)c3oc2c1C [DMXAA, 5,6-dimethylxanthenone-4-acetic acid] :: 1.11
2. Nc1nc2c(ncn2[C@@H]2O[C@@H]3COP(=O)(O)O[C@H]4[C@@H](O)[C@H](n5cnc6c(N)ncnc65)O[C@@H]4COP(=O)(O)O[C@@H]2[C@@H]3O)c(=O)[nH]1 [cGAMP, Cyclic [G(2′,5′)pA(3′,5′)p]] :: 1.61
3. CCOCc1nc2c(N)nc3ccccc3c2n1CC(C)(C)O [R848] :: 1.68
4. Nc1nc2c(ncn2[C@@H]2O[C@@H]3COP(=O)(O)O[C@H]4[C@@H](O)[C@H](n5cnc6c(=O)[nH]c(N)nc65)O[C@@H]4COP(=O)(O)O[C@H]3[C@H]2O)c(=O)[nH]1 [cdiGMP, Cyclic diguanylate monophosphate] :: 1.46
